Test system: NCI-H1975 (ATCC CRL-5908) cell line comprising an EGFR T790M L858R double mutation
protocol: EGFR-SOS cellular inhibition assay (CellTiter-Glo cell proliferation)
Assay type: cell-based
recordedConditions: Homo sapiens, 120 h; NCI-H1975 cell proliferation, approximately 5 days; read-out: H1975 IC50
pIC50: −log10 of the molar value.
measuredMetric: pIC50

compound=C[C@H]1Nc2ncnc3c2cc(C2(C#N)CC2)c(=O)n3CCCCn2cc(nn2)CN2CCC(CC2)C(F)(F)c2cccc1c2F testedsystem="NCI-H1975 (ATCC CRL-5908) cell line comprising an EGFR T790M L858R double mutation" testvalue="> 6.00"
compound=C[C@H]1Nc2ncnc3c2cc(C2(C#N)CCS(=O)(=O)CC2)c(=O)n3CCCCCCCN2CCC(CC2)C(F)(F)c2cccc1c2F testedsystem="NCI-H1975 (ATCC CRL-5908) cell line comprising an EGFR T790M L858R double mutation" testvalue="> 6.00"
compound="Cc1nc2c3cc(C4(C#N)CC4)c(=O)n(c3n1)CCCCCCCCC(C)(O)C(F)(F)c1cccc(c1)[C@@H](C)N2 (stereo partly drawn)" testedsystem="NCI-H1975 (ATCC CRL-5908) cell line comprising an EGFR T790M L858R double mutation" testvalue="> 6.00"
